Entries below carry reported pIC50 on CHK-1 kinase (Homo sapiens (Human)).
Sequence (O14757 whole entry): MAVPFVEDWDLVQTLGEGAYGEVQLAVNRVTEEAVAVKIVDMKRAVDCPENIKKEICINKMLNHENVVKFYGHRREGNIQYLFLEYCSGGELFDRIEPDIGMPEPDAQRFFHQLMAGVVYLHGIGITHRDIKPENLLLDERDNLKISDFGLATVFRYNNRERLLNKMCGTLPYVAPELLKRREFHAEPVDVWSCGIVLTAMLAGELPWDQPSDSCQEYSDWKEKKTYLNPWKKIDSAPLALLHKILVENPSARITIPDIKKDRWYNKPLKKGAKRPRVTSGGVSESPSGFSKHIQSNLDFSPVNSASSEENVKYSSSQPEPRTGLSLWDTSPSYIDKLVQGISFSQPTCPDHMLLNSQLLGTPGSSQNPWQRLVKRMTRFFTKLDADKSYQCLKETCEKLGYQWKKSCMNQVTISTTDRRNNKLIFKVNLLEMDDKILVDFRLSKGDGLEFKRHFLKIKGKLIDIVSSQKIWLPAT
pIC50: −log10 of the molar value.

molecule	pIC50
N#Cc1cnc(Nc2cc(OCC3CNCCO3)cnn2)cn1 (stereo not drawn)	< 5.00
CC(C)(C)OC(=O)N1CCOC(CNc2cc(Nc3cnc(C#N)cn3)nnc2C(F)(F)F)C1 (stereo not drawn)	< 5.00

Let us move to another entry and its pIC50.
QUERY: Report pIC50 for N#Cc1cnc(Nc2cc(NCC3CCNCC3)c(C(F)(F)F)nn2)cn1 [1.8, 2,2,2-trifluoroacetate] please.
RESULT: 5.24

###

Target: UniProtKB O14757
Assay: CHK-1 Kinase Assay (Z-LYTE based TR-FRET)
Assay type: biochemical
Settings: 1 μM compound; read-out: % Inhibition of CHK-1 enzyme activity @ 1 μM
property-measured: inhibition at 1 µM (%)

Observe how each entry below is paired with its result.
compound	observed-result
CNC(=O)c1nnc(Nc2cnc(C#N)cn2)cc1NCC1CNCCO1 (centres unmarked) [1.11]	100
N#Cc1cnc(Nc2cc(NCC3CCNCC3)c(-c3cccc(N4CCCCC4)c3)nn2)cn1 [1.25]	10
COc1cccc(-c2nnc(Nc3cnc(C#N)cn3)cc2NCC2CCNCC2)c1 [1.26]	9
N#Cc1cnc(Nc2cc(NCC3CCNCC3)c(C(N)=O)nn2)cn1 [1.3]	93
Cn1ccc(-c2nnc(Nc3cnc(C#N)cn3)cc2NCC2CCNCC2)n1 [1.28]	48
N#Cc1cnc(Nc2cc(NCC3CCNCC3)c(OCC(F)(F)F)nn2)cn1 [1.33]	35

P: N#Cc1cnc(Nc2cc(NCC3CCNCC3)c(-c3ccc(CO)cc3)nn2)cn1 [1.27]
Q: Cc1nnc(Nc2cnc(C#N)cn2)cc1NCC1CNCCO1 (centres unmarked) [1.14]
QUERY: Consider P and Q . Which of these has its inhibition at 1 µM at a higher number? Response format: the label of the selected entry.
RESULT: Q

I: CC(C)Oc1nnc(Nc2cnc(C#N)cn2)cc1NCC1CCNCC1 [1.31]
II: N#Cc1cnc(Nc2cc(NCC3CCNCC3)c(-c3ccc(F)cc3)nn2)cn1 [1.21]
III: CN(C)C(=O)c1nnc(Nc2cnc(C#N)cn2)cc1NCC1CCNCC1 [1.32]
IV: CNC(=O)c1nnc(Nc2cnc(C#N)cn2)cc1NC[C@H]1CNCCO1 (stereo in doubt) [1.35]
QUERY: Sort by inhibition at 1 µM, descending. Write out the labels following the order that was asked for.
RESULT: IV, I, II, III
